- ASSAY_TARGET: T1, UNK ZnF1-6 (called full-length) (human, UniProt Q9C0B0 30-357)
- T1 sequence: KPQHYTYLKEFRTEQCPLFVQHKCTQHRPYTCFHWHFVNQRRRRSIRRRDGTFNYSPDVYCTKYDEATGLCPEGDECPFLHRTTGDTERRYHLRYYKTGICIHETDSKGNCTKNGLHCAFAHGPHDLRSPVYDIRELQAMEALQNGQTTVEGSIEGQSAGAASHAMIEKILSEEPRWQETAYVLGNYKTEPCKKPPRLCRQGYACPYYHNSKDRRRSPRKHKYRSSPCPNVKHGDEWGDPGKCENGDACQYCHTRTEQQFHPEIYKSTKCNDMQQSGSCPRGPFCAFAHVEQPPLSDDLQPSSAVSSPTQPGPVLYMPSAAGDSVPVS
- METHOD_DESCRIPTION: nsRBNS (natural sequence RNA bind-n-seq); RBNS binding buffer (assumed for nsRBNS): 25 mM Tris pH 7.5, 150 mM KCl, 3 mM MgCl2, 0.01% Triton X-100, 500 ug/ml BSA, 20 U/ml SUPERase-In, 4 C; UNK is unkempt and MSI1 is Musashi-1; names of the RNAs are library labels; protein concentration not given here; high values mean tight binding
In all, about 5,800 sequences were measured (“enrichment r”: median about 0.68, highest 2% from about 11 on). A selection follows.
READOUT_KIND: binding signal (enrichment R)
Report only the number, with the unit enrichment R understood.

- BINDER: "chr1:93180074:93180188:-|CDS|ENSG00000117500|unk|FALSE|bound_elsewhere (ssRNA) RNA: GGGAGUUCUACAGUCCGACGAUCCUGGCCGCUCUGCCUCCGGUGCUGCUGCCUGGGGCGGCCGGCUUCACACCUUCCCUCGAUAGCGACUUCACCUUUACCCUUCCCGCCGGCCAGAAGGAGUGCUUCUACCAGCCCAUGCCCCAACAGAGGAUUGAGCAUCA"
  binding signal / enrichment R: 1.1

**Q:** What value of binding signal has been recorded for this entry: chr2:42328916:42329027:+|CDS|ENSG00000143924|unk|FALSE|unique (ssRNA) RNA: GGGAGUUCUACAGUCCGACGAUCAGAAGGAUCUGAUGGGACAGAUAUCAAUGCACUGGUGCGAUCCCACAAUAGAAAGGUGAUAGCUGUUGCCGAUGACUUUUGUAAAGUCCAUCUGUUUCAGUAUCCCUGCUCCAAAGCAAACAACAGAGGAUUGAGCAUCA
**A:** 0.424
